molecular target: PARP2 (Homo sapiens); construct: purchased BPS Bioscience (San Diego, CA); assay: PARP2 colorimetric activity assay kit (BPS Bioscience); type: biochemical; details: values greater than 1.0 indicate selectivity towards PARP2
Sequence (Q9UGN5 whole entry): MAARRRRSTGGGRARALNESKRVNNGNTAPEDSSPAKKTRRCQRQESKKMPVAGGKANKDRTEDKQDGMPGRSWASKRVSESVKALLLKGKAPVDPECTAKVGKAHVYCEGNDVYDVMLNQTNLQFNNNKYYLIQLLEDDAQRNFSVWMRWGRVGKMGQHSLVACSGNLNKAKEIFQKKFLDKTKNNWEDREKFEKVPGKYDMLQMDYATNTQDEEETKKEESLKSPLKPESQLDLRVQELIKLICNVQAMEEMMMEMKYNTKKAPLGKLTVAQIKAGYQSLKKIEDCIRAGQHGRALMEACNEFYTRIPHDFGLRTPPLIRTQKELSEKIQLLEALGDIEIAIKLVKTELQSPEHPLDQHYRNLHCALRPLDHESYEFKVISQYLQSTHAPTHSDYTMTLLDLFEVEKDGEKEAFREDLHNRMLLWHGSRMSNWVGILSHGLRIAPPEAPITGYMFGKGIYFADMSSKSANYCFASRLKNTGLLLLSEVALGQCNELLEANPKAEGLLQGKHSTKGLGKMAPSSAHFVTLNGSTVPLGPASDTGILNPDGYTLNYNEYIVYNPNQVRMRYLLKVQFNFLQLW
parameter: SI (selectivity index) IC50(PARP1)/IC50(PARP2)
Respond with the number and no other words.

Known results for compounds:
O=C1N[C@H](c2ccc(F)cc2)[C@@H](C(=O)N2CCC(N3CCCCC3)CC2)c2ccccc21 = 1.39
O=C1N[C@H](C2CC2)[C@@H](C(=O)N2CCC(N3CCCCC3)CC2)c2ccccc21 = 1.44
O=C1N[C@H](c2ccccc2)[C@@H](C(=O)N2CCC(N3CCCCC3)CC2)c2ccccc21 = 1.26
CC(C)C[C@H]1NC(=O)c2ccccc2[C@@H]1C(=O)N1CCC(N2CCCCC2)CC1 = 0.83
O=C1NC(C2CC2)C(C(=O)N2CCC(N3CCCCC3)CC2)c2ccc(F)cc21 (stereo not shown) = 5.1
CC[C@H]1NC(=O)c2ccccc2[C@@H]1C(=O)N1CCC(N2CCCCC2)CC1 = 4.05

Turning to the following compound.
Q) # query: SI (selectivity index) IC50(PARP1)/IC50(PARP2) of entry C[C@H]1NC(=O)c2ccccc2[C@@H]1C(=O)N1CCC(N2CCCCC2)CC1
A) 3.28
